System: HCC-15
Assay: relative viability (nuclei count vs DMSO), 5 days (fraction); higher = more cells survive
Settings: first compound 1 µM
metric: relative viability
One number for each entry.

Before answering, review these 3 worked examples.
compound	measuredTarget	relative viability
CCN(CC)CCCCNc1ncc2cc(-c3cc(OC)cc(OC)c3)c(NC(=O)NC(C)(C)C)nc2n1 + COc1cc2c(Oc3ccc(NC(=O)C4(C(=O)Nc5ccc(F)cc5)CC4)cc3F)ccnc2cc1OCCCN1CCOCC1 [Foretinib] (partner 0.25 µM)	HCC-15	0.989
CCN(CC)CCCCNc1ncc2cc(-c3cc(OC)cc(OC)c3)c(NC(=O)NC(C)(C)C)nc2n1 + Cc1nc(NC(=O)N2CCC[C@H]2C(N)=O)sc1-c1ccnc(C(C)(C)C(F)(F)F)c1 [Alpelisib] (partner 2 µM)	HCC-15	0.868
CCN(CC)CCCCNc1ncc2cc(-c3cc(OC)cc(OC)c3)c(NC(=O)NC(C)(C)C)nc2n1 + NC(=O)Nc1cc(-c2cccc(F)c2)sc1C(=O)N[C@H]1CCCNC1 [AZD7762] (partner 0.2 µM)	HCC-15	1.12

In the following, a different compound is considered.
Please tell me the measured relative viability for O=c1cc(N2CCOCC2)oc2c(-c3cccc4c3sc3ccccc34)cccc12 + COc1cccc2cc(-c3nc([C@H]4CC[C@H](C(=O)O)CC4)n4ncnc(N)c34)[nH]c12 [OSI-027] (partner 0.5 µM) ; system: HCC-15.
0.67

###

Tested on: NCI-H2347
Experiment: relative viability (nuclei count vs DMSO), 5 days (fraction); higher = more cells survive
Settings: first compound 0.253 µM
Field: relative viability. Provide a value for each of the compounds that follow.

Here's what some known entries look like.
compound	relative viability
O=c1cc(-c2cccc3c2Sc2ccccc2S3)oc(N2CCOCC2)c1 + C[C@]1(O)C[C@@H](c2nc(-c3ccc4ccc(-c5ccccc5)nc4c3)c3c(N)nccn32)C1 [Linsitinib] (partner 1 µM)	1.15
O=c1cc(-c2cccc3c2Sc2ccccc2S3)oc(N2CCOCC2)c1 + COc1cc2c(Oc3ccc(NC(=O)C4(C(=O)Nc5ccc(F)cc5)CC4)cc3F)ccnc2cc1OCCCN1CCOCC1 [Foretinib] (partner 0.25 µM)	0.841
COc1nc(C)cnc1NS(=O)(=O)c1cccnc1-c1ccc(-c2nnco2)cc1 [Zibotentan] + COc1cccc2cc(-c3nc([C@H]4CC[C@H](C(=O)O)CC4)n4ncnc(N)c34)[nH]c12 [OSI-027] (partner 0.5 µM)	0.384

Please state, for each entry, its recorded relative viability.
1. O=c1cc(-c2cccc3c2Sc2ccccc2S3)oc(N2CCOCC2)c1 + COc1cccc2cc(-c3nc([C@H]4CC[C@H](C(=O)O)CC4)n4ncnc(N)c34)[nH]c12 [OSI-027] (partner 0.5 µM)
2. O=c1cc(-c2cccc3c2Sc2ccccc2S3)oc(N2CCOCC2)c1 + Cc1nc(NC(=O)N2CCC[C@H]2C(N)=O)sc1-c1ccnc(C(C)(C)C(F)(F)F)c1 [Alpelisib] (partner 2 µM)
3. O=c1cc(-c2cccc3c2Sc2ccccc2S3)oc(N2CCOCC2)c1 + CS(=O)(=O)N1CCN(Cc2cc3nc(-c4cccc5[nH]ncc45)nc(N4CCOCC4)c3s2)CC1 [Pictilisib] (partner 1 µM)
4. COc1nc(C)cnc1NS(=O)(=O)c1cccnc1-c1ccc(-c2nnco2)cc1 [Zibotentan] + Cc1nc(Nc2ncc(C(=O)Nc3c(C)cccc3Cl)s2)cc(N2CCN(CCO)CC2)n1 [Dasatinib] (partner 0.075 µM)
5. O=c1cc(-c2cccc3c2Sc2ccccc2S3)oc(N2CCOCC2)c1 + N=C(N)NC(=N)NCCc1ccccc1 [Phenformin] (partner 250 µM)
6. COc1nc(C)cnc1NS(=O)(=O)c1cccnc1-c1ccc(-c2nnco2)cc1 [Zibotentan] + Nc1ncn([C@H]2C[C@H](O)[C@@H](CO)O2)c(=O)n1 [Decitabine] (partner 2 µM)

1. 0.454
2. 1.14
3. 0.952
4. 0.294
5. 0.501
6. 0.586
